Just for reference, paper PMC3112094 is where these values come from.

Test system: CD33^+my cells
Experiment: Cytotoxicity in normal bone marrow cells, TruCOUNT flow cytometry
Format: cell-based, human
Conditions: Homo sapiens, Bone marrow cell, 5 normal bone marrow samples, 24-hour
Property label: IC50

> print(dat)
                               molecule  measured.result
1  CC(C)=CCC[C@](C)(O)[C@@H]1CC=C(C)CC1            95 µM

----------
Tested on: primary acute leukemia cells
Experiment: cells
Type: cell-based, human
Conditions: Homo sapiens, 24 h, cluster 1, n 8, 24-hour
pIC50: −log10 of the molar value.
Property label: pIC50

> print(dat)
                               molecule  measured.result
1  CC(C)=CCC[C@](C)(O)[C@@H]1CC=C(C)CC1             4.85

----------
Tested on: Ph^+B-ALL cells
Assay: 24-hour LDH release cytotoxicity assay, ex vivo blasts
Assay type: cell-based, human
Conditions: Homo sapiens; Ph^+B-ALL, n 14, 24-hour
Property label: IC50 (µM)

> print(dat)
                               molecule  target.or.system  units.of.measure  measured.result
1  CC(C)=CCC[C@](C)(O)[C@@H]1CC=C(C)CC1   Ph^+B-ALL cells                µM               46
